Test system: SK-MEL-5 melanoma
Test: NCI tumour cell line growth inhibition, 48 h
outcome_measure: TGI

Consider the reported TGI for these compounds:
Cc1nc(-n2nc(-c3ccccc3)cc2-c2ccccc2)sc1C(/C=C/c1ccc([N+](=O)[O-])cc1)=N/NC(=O)c1ccncc1; 63.7 µM
CSC1=NCC2(S1)c1ccccc1N(C(=O)OC(C)(C)C)C2N1CCCCC1 (stereo unspecified); > 100 µM
COc1ccc(C2CCc3cc4c(cc3/C2=N/OC(C)=O)OCO4)cc1OC (stereo unspecified); 23 µM
NC(=O)Cc1nc2c(=O)[nH]cnc2n1C1OC(CO)C(O)C1O (stereo unspecified); > 100 µM
CC(C)(C)C1CC[C@H](O)[C@H]([C@H](O)CC2CC(=O)N(c3ccccc3)C(=O)C2)C1 (stereo partly specified); > 100 µM
CCOC(=O)C1CCCCN1CCc1c[nH]c2ccccc12 (stereo unspecified); > 100 µM

Param readout= TGI; system= SK-MEL-5 melanoma; entry= Nc1ccc2c(c1)c(N)nn2C(=O)Nc1ccc(Cc2ccccc2)cc1 ; returns value.
19.8 µM

Param readout= TGI; system= SK-MEL-5 melanoma; entry= Nc1nc(Cl)cc(NCC2(O)CCCC2)n1 ; returns value.
> 100 µM

Param readout= TGI; system= SK-MEL-5 melanoma; entry= COc1ccccc1NC(=O)C(CC(C(=O)Nc1ccccc1OC)/C(C)=N/Nc1ccc([N+](=O)[O-])cc1[N+](=O)[O-])/C(C)=N/Nc1ccc([N+](=O)[O-])cc1[N+](=O)[O-] (stereo unspecified) ; returns value.
> 100 µM
